// provenance: PubChem BioAssay (NCI)

tested on: MDA-MB-231 breast; assay: NCI tumour cell line growth inhibition, 48 h
PARAMETER_MEASURED: TGI (µM)
Expressed in µM, but write only the number.

Here are 3 compounds together with their reported answers.
{"CHEM_SMILES": "O=C1c2ccccc2C(=O)c2c1ccc1c3ccccc3n(-c3ccccc3)c21", "SUBJECT_OF_TEST": "MDA-MB-231 breast", "TGI (µM)": 77.7}
{"CHEM_SMILES": "CC/C(=C/c1ccc(OC)cc1)[N+](=O)[O-]", "SUBJECT_OF_TEST": "MDA-MB-231 breast", "TGI (µM)": 4.9}
{"CHEM_SMILES": "CCOC(=O)Nc1cc2c(c(N)n1)N=C(c1ccc(Cl)cc1Cl)CN2", "SUBJECT_OF_TEST": "MDA-MB-231 breast", "TGI (µM)": 16.2}

Query: So what does the record say about TGI for `Cc1c(CCCl)c(Cl)n2c(nc3ccccc32)c1C#N` ?
Reply: 17.9

----------
system: U251 CNS; assay: NCI tumour cell line growth inhibition, 48 h
PARAMETER_MEASURED: TGI

Here are 5 molecules together with their reported answers.
{"MOLECULE": "O=C(Nc1c[nH]c(=O)[nH]c1=O)Oc1ccccc1", "TGI": "> 100 µM"}
{"MOLECULE": "CNC(=O)c1sc(-n2cnc3cc(OC)c(OC)cc32)cc1OCc1ccccc1C(F)(F)F", "TGI": "> 25 µM"}
{"MOLECULE": "CC1=C(\\C=C/C(C)=C/C=C/C(C)=C/C=C/C=C(C)\\C=C\\C=C(C)/C=C/C2=C(C)CCCC2(C)C)C(C)(C)CCC1", "TGI": "> 100 µM"}
{"MOLECULE": "COc1ccc(N2C(=O)[C@@H]3[C@@H]4CC(C)CC[C@@H]4c4c([nH]c5ccccc45)[C@@H]3C2=O)cc1 (some centres undefined)", "TGI": "28.8 µM"}
{"MOLECULE": "Cc1cc2nc3c(N)nn(CCCN(C)C)c3nc2cc1C", "TGI": "> 100 µM"}

Query: Query for U251 CNS: what TGI does the record show for `C(=C\c1ccc2ccccc2c1Nc1ccccc1)/c1ccccc1` ?
Reply: > 64.1 µM

Query: Query for U251 CNS: what TGI does the record show for COc1cc(/C=N/NC(=O)c2cnn3c2NC(c2ccccc2)C3)ccc1OCc1ccccc1 (centres undefined) ?
Reply: 3.07 µM

Query: Query for U251 CNS: what TGI does the record show for `ClC/C=C/CSc1ncnc2nc[nH]c12` ?
Reply: > 100 µM

Query: Query for U251 CNS: what TGI does the record show for `NN=C1/C(=C\c2ccccc2)CCC/C1=C/c1ccccc1` ?
Reply: > 100 µM

----------
system: SF-268 CNS; experiment: NCI tumour cell line growth inhibition, 48 h; in the data active = GI50 below about 0.43 µM; inactive = the rest
The categories you may choose from are yes (active), no (inactive)

Take a look at these entries with their results.
{"CHEM_SMILES": "CNC(=O)c1sc(-n2cnc3cc(OC)c(OC)cc32)cc1OCc1ccccc1C(F)(F)F", "CATEGORY": "no"}
{"CHEM_SMILES": "Oc1ccccc1/C=N\\NC(=S)Nc1ccc(F)cc1", "CATEGORY": "no"}
{"CHEM_SMILES": "CN1CCN(Cc2ccc(NC(=O)c3cncc(C#Cc4c(N)ncc5ccccc45)c3)cc2C(F)(F)F)CC1", "CATEGORY": "no"}
{"CHEM_SMILES": "O=C1c2ccc3c4c(ccc(c24)C(=O)N1CCCCO)C(=O)N(CCCCO)C3=O", "CATEGORY": "no"}
{"CHEM_SMILES": "COc1ccc([C@@H]2[C@@H](Cl)C(=O)N2c2cc(OC)c(OC)c(OC)c2)cc1C", "CATEGORY": "yes"}

Query: In this assay, the call recorded for `CC/C(=C/c1ccc(OC)cc1)[N+](=O)[O-]` was what?
Reply: no

Query: In this assay, the call recorded for `ClC/C=C/CSc1ncnc2nc[nH]c12` was what?
Reply: no

Query: In this assay, the call recorded for `N#Cc1ccc2c(-c3ccnc(NC4CC4)n3)c(-c3ccc(F)cc3)nn2c1` was what?
Reply: no

Query: In this assay, the call recorded for `O=C(O)CN(CCN(CC(=O)O)CC(=O)O)CC(=O)O.[Cu+2].[Na+]` was what?
Reply: no

Query: In this assay, the call recorded for `Nc1nc(SCC#CCCl)c2[nH]cnc2n1` was what?
Reply: no

Query: In this assay, the call recorded for `c1c2c(cc3c1OCO3)-c1ncc3cc4c(cc3c1C2)OCO4` was what?
Reply: yes

----------
Reported GI50 values for the following molecules.
system: TK-10 renal; test: NCI tumour cell line growth inhibition, 48 h

Here are 5 molecules together with their reported answers.
{"MOLECULE": "CSc1ccc(-c2cn3ccsc3n2)cc1", "GI50": "18000 nM"}
{"MOLECULE": "C=C1C(C)C2C(Cc3ccccc3)NC(=O)C23C(OC(C)=O)C=CC(C)(O)C(=O)C(C)C/C=C/C3C1O (stereo not drawn)", "GI50": "732 nM"}
{"MOLECULE": "CNC(=O)c1sc(-n2cnc3cc(OC)c(OC)cc32)cc1OCc1ccccc1C(F)(F)F", "GI50": "> 25000 nM"}
{"MOLECULE": "CCCCCn1sc(=O)n(Cc2ccc(CNC(=O)C(C)c3ccc(CC(C)C)cc3)cc2)c1=O (stereo not drawn)", "GI50": "736 nM"}
{"MOLECULE": "COC(=O)c1sc(-n2cnc3cc(OC)c(OC)cc32)cc1OCc1ccccc1C(F)(F)F", "GI50": "11000 nM"}

Query: So what does the record say about GI50 for `CN1CCN(Cc2ccc(NC(=O)c3cncc(C#Cc4c(N)ncc5ccccc45)c3)cc2C(F)(F)F)CC1` ?
Reply: 919 nM

Query: So what does the record say about GI50 for `C=CC[PH+](c1ccccc1)c1ccccc1.C=CC[PH+](c1ccccc1)c1ccccc1.[Pt+2].[S-]c1nc2ccccc2[nH]1.[S-]c1nc2ccccc2[nH]1` ?
Reply: 3290 nM

Query: So what does the record say about GI50 for `Cc1ccc2nc(CN(CCN(Cc3nc4ccc(C)cc4[nH]3)Cc3nc4ccc(C)cc4[nH]3)Cc3nc4ccc(C)cc4[nH]3)[nH]c2c1` ?
Reply: 1480 nM

----------
system: A549 NSCLC; experiment: NCI tumour cell line growth inhibition, 48 h
PARAMETER_MEASURED: TGI (µM)
Expressed in µM, but write only the number.

{"COMPOUND": "NP1(Oc2ccc(F)cc2)=NP(N)(Oc2ccc(F)cc2)=NP(Oc2ccc(F)cc2)(Oc2ccc(F)cc2)=N1 (stereo not given)", "SUBJECT_OF_TEST": "A549 NSCLC", "DISPLAY_UNIT": "µM", "TGI": 14.6}
{"COMPOUND": "O=C1c2ccc3c4c(ccc(c24)C(=O)N1CCCCO)C(=O)N(CCCCO)C3=O", "SUBJECT_OF_TEST": "A549 NSCLC", "DISPLAY_UNIT": "µM", "TGI": 6.65}
{"COMPOUND": "COc1cccc(/C=C\\C(=O)c2ccccc2)c1", "SUBJECT_OF_TEST": "A549 NSCLC", "DISPLAY_UNIT": "µM", "TGI": 40.5}

Now let's try a different one.
Query: So what does the record say about TGI for `OC[C@H]1C[C@](O)(c2ccccc2Cl)[C@@H](c2ccccc2Cl)O1` ?
Reply: 58.1

----------
test system: HOP-92 NSCLC; experiment: NCI tumour cell line growth inhibition, 48 h; in the data active means GI50 below about 0.43 µM; inactive means the rest
The categories you may choose from are active, inactive

Take a look at these entries with their results.
{"COMPOUND": "CCCCCn1sc(=O)n(Cc2ccc(CNC(=O)C(C)c3ccc(CC(C)C)cc3)cc2)c1=O (stereo not given)", "SUBJECT_OF_TEST": "HOP-92 NSCLC", "CATEGORY": "inactive"}
{"COMPOUND": "COc1cc(OC)c(/C=C/S(=O)(=O)Cc2ccc(OC)c(N)n2)c(OC)c1", "SUBJECT_OF_TEST": "HOP-92 NSCLC", "CATEGORY": "active"}
{"COMPOUND": "Oc1ccccc1/C=N\\NC(=S)Nc1ccc(F)cc1", "SUBJECT_OF_TEST": "HOP-92 NSCLC", "CATEGORY": "inactive"}
{"COMPOUND": "CCOC(=O)c1c(CN2CCCCC2)nc2ccc(Cl)cc2c1-c1ccccc1", "SUBJECT_OF_TEST": "HOP-92 NSCLC", "CATEGORY": "inactive"}

Query: In this assay, the call recorded for `O=C(c1ccccc1)c1nn(-c2cccc(Cl)c2)c2nc3nc(-c4ccccc4)cc(=O)n3nc12` was what?
Reply: inactive

----------
Reported TGI values for the following compounds.
system: COLO 205 colon; test: NCI tumour cell line growth inhibition, 48 h

Here are 4 compounds together with their reported answers.
{"COMPOUND": "COC(=O)C(=O)C(C(=O)C(=O)Nc1cc(C)ccc1C)c1nc2ccccc2[nH]c1=O (stereo not given)", "TGI": "> 100 µM"}
{"COMPOUND": "Cc1c2ccncc2c(C)c2c1[nH]c1ccc(O)cc12", "TGI": "0.455 µg/mL"}
{"COMPOUND": "COc1cc(/C=N/NC(=O)c2cnn3c2NC(c2ccccc2)C3)ccc1OCc1ccccc1 (stereo not given)", "TGI": "4.22 µM"}
{"COMPOUND": "COc1cc2c(c(O)c1OC)C(O)C1CCC(=O)N1C2c1ccc2c(c1)OCO2 (stereo not given)", "TGI": "> 100 µM"}

Now let's try a different one.
Query: Query for COLO 205 colon: what TGI does the record show for CC(C)C(Sc1nc(N)nc2nc[nH]c12)C(=O)O (stereo not given) ?
Reply: > 100 µM
